- test_target: hTERT (catalytic subunit of human telomerase) (Homo sapiens)
- Construct: with telomerase ribonucleoprotein (TERC RNA and accessory proteins)
- Sequence (O14746 whole entry): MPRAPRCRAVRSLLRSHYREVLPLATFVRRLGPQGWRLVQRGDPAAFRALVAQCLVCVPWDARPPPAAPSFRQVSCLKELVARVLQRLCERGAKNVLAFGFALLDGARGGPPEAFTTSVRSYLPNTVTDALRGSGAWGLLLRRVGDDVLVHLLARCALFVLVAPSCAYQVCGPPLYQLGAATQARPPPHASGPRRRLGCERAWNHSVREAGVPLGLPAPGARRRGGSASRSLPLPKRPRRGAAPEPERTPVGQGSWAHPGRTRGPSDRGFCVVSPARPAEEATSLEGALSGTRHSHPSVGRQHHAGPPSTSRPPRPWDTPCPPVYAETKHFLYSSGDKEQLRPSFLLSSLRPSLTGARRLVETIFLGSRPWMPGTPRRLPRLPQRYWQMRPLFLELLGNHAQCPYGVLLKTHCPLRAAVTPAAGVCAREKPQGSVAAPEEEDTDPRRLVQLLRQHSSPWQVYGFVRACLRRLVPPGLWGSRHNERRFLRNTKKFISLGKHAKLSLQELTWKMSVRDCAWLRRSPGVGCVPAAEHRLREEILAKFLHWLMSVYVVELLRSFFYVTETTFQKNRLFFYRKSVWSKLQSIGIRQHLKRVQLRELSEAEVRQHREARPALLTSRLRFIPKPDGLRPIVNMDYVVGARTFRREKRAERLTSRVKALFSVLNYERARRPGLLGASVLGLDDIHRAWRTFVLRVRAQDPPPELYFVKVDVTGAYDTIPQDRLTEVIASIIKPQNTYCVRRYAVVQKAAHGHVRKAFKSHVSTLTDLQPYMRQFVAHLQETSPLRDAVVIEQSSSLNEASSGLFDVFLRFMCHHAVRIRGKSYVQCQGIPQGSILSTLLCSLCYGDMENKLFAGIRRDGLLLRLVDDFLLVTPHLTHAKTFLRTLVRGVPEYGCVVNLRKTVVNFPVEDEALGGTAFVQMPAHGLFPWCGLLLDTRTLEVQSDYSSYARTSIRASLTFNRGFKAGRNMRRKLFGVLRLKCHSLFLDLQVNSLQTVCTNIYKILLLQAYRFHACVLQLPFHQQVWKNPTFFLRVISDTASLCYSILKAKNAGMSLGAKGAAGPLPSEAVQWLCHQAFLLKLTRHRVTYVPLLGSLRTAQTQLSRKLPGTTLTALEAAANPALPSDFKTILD
- protocol_summary: test-tube TRAP assay
value_type: IC50

IC50 in this record for `C/C(=C\C(=O)Nc1ccccc1C(=O)O)c1ccc2ccccc2c1` : 64.1 µM
